The origin of these recorded values is patent US7462598B2.

compounds and their reported M
# System: S. aureus 502a, E. coli ML35, and C. albicans 16820
# ASSAY SUMMARY: Cell-suspension microbicidal assay, statements across the test organisms (lowest MMC, overall ranges)
# Assay type: cell-based
# CONDITIONS: peptide concentration that kill 99.9% of either S. aureus, E. coli, or C. albicans; lowest MMC value
Bridge positions count the residues as written; N and C are the ends. Peptide text beside a SMILES is read from it.
MEASURE: M

>>> experimental_value("CC(C)C[C@@H]1NC(=O)[C@H](CCCNC(=N)N)NC(=O)CNC(=O)CNC(=O)[C@H](CCCNC(=N)N)NC(=O)[C@H](CCCNC(=N)N)NC(=O)CNC(=O)[C@H](C(C)C)NC(=O)[C@@H]2CSSC[C@H](NC1=O)C(=O)N[C@@H](Cc1ccc(O)cc1)C(=O)N[C@H]1CSSC[C@H](NC(=O)[C@H](Cc3ccccc3)NC(=O)[C@H](CCCNC(=N)N)NC(=O)[C@H](CCCNC(=N)N)NC(=O)[C@H](CCCNC(=N)N)NC1=O)C(=O)N[C@@H](C(C)C)C(=O)N2 [cPG-1] (cyclo(GGRLCYCRRRFCVCVGRR); disulfide 5-14, 7-12)")
"1 µg/mL"
>>> experimental_value("CC(C)C[C@@H]1NC(=O)[C@@H]2CSSC[C@H](NC(=O)[C@H](CCCNC(=N)N)NC(=O)[C@@H]3CSSC[C@H](NC1=O)C(=O)N[C@@H](CCCNC(=N)N)C(=O)N[C@@H](CCCNC(=N)N)C(=O)NCC(=O)N[C@@H](C(C)C)C(=O)N3)C(=O)N[C@@H](CC(C)C)C(=O)N[C@H]1CSSC[C@H](NC(=O)[C@H](C(C)C)NC(=O)CNC(=O)[C@H](CCCNC(=N)N)NC(=O)[C@H](CCCNC(=N)N)NC1=O)C(=O)N[C@@H](CCCNC(=N)N)C(=O)N2 [RTD-3] (cyclo(CLCRRGVCRCLCRRGVCR); disulfide 1-10, 3-8, 12-17)")
"1 µg/mL"
>>> experimental_value("CC(C)C[C@H](NC(=O)[C@H](CCCNC(=N)N)NC(=O)CNC(=O)CNC(=O)[C@@H](N)CCCNC(=N)N)C(=O)N[C@H]1CSSC[C@@H](C(=O)N[C@H](C(=O)NCC(=O)N[C@@H](CCCNC(=N)N)C(N)=O)C(C)C)NC(=O)[C@H](C(C)C)NC(=O)[C@@H]2CSSC[C@H](NC(=O)[C@H](Cc3ccc(O)cc3)NC1=O)C(=O)N[C@@H](CCCNC(=N)N)C(=O)N[C@@H](CCCNC(=N)N)C(=O)N[C@@H](CCCNC(=N)N)C(=O)N[C@@H](Cc1ccccc1)C(=O)N2 [PG-1, reference compound]")
"0.38 µg/mL"
>>> experimental_value("CC[C@H](C)[C@@H]1NC(=O)[C@@H]2CSSC[C@H](NC(=O)[C@H](CCCNC(=N)N)NC(=O)[C@@H]3CSSC[C@H](NC1=O)C(=O)N[C@@H]([C@@H](C)O)C(=O)N[C@@H](CCCNC(=N)N)C(=O)NCC(=O)N[C@@H](Cc1ccccc1)C(=O)N3)C(=O)N[C@@H](CC(C)C)C(=O)N[C@H]1CSSC[C@H](NC(=O)[C@H](C(C)C)NC(=O)CNC(=O)[C@H](CCCNC(=N)N)NC(=O)[C@H](CCCNC(=N)N)NC1=O)C(=O)N[C@@H](CCCNC(=N)N)C(=O)N2 [RTD-1] (cyclo(GFCRCLCRRGVCRCICTR); disulfide 3-16, 5-14, 7-12)")
"1 µg/mL"
>>> experimental_value("CC(C)[C@@H]1NC(=O)[C@@H]2CSSC[C@H](NC(=O)[C@H](CCCNC(=N)N)NC(=O)[C@@H]3CSSC[C@H](NC1=O)C(=O)N[C@@H](CCCNC(=N)N)C(=O)N[C@@H](CCCNC(=N)N)C(=O)NCC(=O)NCC(=O)N3)C(=O)N[C@@H](Cc1ccc(O)cc1)C(=O)N[C@H]1CSSC[C@H](NC(=O)[C@H](Cc3ccccc3)NC(=O)[C@H](CCCNC(=N)N)NC(=O)[C@H](CCCNC(=N)N)NC(=O)[C@H](CCCNC(=N)N)NC1=O)C(=O)N[C@@H](C(C)C)C(=O)N2 [3cys cPG-1] (cyclo(GGCRCYCRRRFCVCVCRR); disulfide 3-16, 5-14, 7-12)")
"0.5 µg/mL"
